This collection of values is drawn from patent US20200283528A1.

# TARGET_SYSTEM: T1, human PDL1 (recombinant, soluble) (human, UniProt Q9NZQ7 19-238)
# T1 construct: also called hPDL1; hPD-L1
# METHOD_SUMMARY: PDL1/PD-1 competition ELISA; PD-1 coated; scFv
Quick reference: IC50 of the listed items.
// units = ng/mL; emit number, no label

Here are 3 binders together with their reported answers.
binder="PRO997/PRO908 (37-20-B03-sc01 scFv) (scFv, VL-linker-VH, VH4 CDR graft; PRO997 was made in CHO-S cells, PRO908 in bacteria; also called 37-20-B03 CDR) scFv: DIQMTQSPSSLSASVGDRVTITCQASQSIGTYLAWYQQKPGKAPKLLIYRAFILASGVPSRFSGSGSGTDFTLTISSLQPEDFATYYCQSNFYSDSTTIGPNAFGTGTKVTVLGGGGGSGGGGSGGGGSGGGGSQVQLQESGPGLVKPSETLSLTCKVSGFSFNSDYWIYWIRQPPGKGLEWIGSIYGGSSGNTQYASWAQGRVTISVDSSKNQFSLKLSSVTAADTAVYYCARGYVDYGGATDLWGQGTLVTVSS" property_measured=IC50 reported_result=0.33
binder="PRO1392 (33-03-G02-sc18 scFv) (scFv) scFv: DIQMTQSPSSLSASVGDRVTITCQASQSINDYLAWYQQKPGKAPKLLIYKASTLASGVPSRFSGSGSGTDFTLTISSLQPEDFATYYCQQGYIITDIDNVFGTGTKVTVLGGGGGSGGGGSGGGGSGGGGSQVQLQESGPGLVKPSETLSLTCKASGFSFSSGYDMCWVRQPPGKGLEWIACVVAGSVDITYYASWAKGRVTISKDSSKNQVSLKLSSVTAADTAVYYCARKDAYSDAFNLWGQGTLVTVSS" property_measured=IC50 reported_result=0.47
binder="PRO830 (33-03-G02-sc01 scFv) (scFv, also called 33-03-G02 CDR) scFv: DIQMTQSPSSLSASVGDRVTITCQASQSINDYLAWYQQKPGKAPKLLIYKASTLASGVPSRFSGSGSGTDFTLTISSLQPEDFATYYCQQGYIITDIDNVFGTGTKVTVLGGGGGSGGGGSGGGGSGGGGSQVQLQESGPGLVKPSETLSLTCKVSGFSFSSGYDMCWIRQPPGKGLEWIGCVVAGSVDITYYASWAKGRVTISVDSSKNQFSLKLSSVTAADTAVYYCARKDAYSDAFNLWGQGTLVTVSS" property_measured=IC50 reported_result=3.45

Q: So what does the record say about IC50 for PRO1183 (33-03-G02-sc03 scFv) (scFv, also called 33_03_G02 sc03 Full) scFv: DFQLTQSPSSLSASVGDRVTITCQASQSINDYLAWYQQKPGKSPKLLIYKASTLASGVPSRFSGSGSGTDFTLTISSLQPEDFATYYCQQGYIITDIDNVFGTGTKVTVLGGGGGSGGGGSGGGGSGGGGSQSQLQESGPGLVKPSETLSLTCKASGFSFSSGYDMCWVRQPPGKGLEWIACVVAGSVDITYYASWAKGRVTISKDSSKNQVSLKLSSVTAADTAVYFCARKDAYSDAFNLWGQGTLVTVSS ?
A: 0.36
